# targetOrSystem: α4β1 integrin (Homo sapiens (Human), UniProt P05556+P13612)
# Sequence (P13612 34-1032): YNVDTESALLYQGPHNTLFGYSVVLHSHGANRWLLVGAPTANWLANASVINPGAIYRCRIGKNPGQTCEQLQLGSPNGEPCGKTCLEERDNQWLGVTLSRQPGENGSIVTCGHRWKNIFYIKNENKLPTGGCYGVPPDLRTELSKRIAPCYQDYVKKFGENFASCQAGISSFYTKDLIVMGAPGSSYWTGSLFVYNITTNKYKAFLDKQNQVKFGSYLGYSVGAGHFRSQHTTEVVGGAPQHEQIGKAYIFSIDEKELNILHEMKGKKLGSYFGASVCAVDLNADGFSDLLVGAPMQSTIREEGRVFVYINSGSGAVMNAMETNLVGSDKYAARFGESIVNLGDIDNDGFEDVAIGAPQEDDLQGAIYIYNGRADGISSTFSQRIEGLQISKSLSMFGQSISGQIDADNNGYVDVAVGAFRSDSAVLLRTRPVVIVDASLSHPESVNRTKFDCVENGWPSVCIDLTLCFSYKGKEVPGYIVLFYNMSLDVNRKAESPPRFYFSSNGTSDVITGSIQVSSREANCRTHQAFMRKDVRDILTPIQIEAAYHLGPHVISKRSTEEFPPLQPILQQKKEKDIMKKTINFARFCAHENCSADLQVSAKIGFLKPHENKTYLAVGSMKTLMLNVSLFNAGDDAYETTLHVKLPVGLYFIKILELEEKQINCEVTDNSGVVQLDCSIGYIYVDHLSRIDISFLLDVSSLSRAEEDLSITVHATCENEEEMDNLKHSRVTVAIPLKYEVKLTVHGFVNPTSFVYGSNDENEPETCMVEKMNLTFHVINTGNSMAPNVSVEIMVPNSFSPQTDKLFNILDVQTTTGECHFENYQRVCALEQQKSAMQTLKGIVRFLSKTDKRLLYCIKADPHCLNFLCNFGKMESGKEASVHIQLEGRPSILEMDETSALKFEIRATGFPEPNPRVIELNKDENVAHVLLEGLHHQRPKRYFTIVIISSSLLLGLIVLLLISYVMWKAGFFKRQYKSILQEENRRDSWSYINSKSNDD
# Sequence (P05556 21-798): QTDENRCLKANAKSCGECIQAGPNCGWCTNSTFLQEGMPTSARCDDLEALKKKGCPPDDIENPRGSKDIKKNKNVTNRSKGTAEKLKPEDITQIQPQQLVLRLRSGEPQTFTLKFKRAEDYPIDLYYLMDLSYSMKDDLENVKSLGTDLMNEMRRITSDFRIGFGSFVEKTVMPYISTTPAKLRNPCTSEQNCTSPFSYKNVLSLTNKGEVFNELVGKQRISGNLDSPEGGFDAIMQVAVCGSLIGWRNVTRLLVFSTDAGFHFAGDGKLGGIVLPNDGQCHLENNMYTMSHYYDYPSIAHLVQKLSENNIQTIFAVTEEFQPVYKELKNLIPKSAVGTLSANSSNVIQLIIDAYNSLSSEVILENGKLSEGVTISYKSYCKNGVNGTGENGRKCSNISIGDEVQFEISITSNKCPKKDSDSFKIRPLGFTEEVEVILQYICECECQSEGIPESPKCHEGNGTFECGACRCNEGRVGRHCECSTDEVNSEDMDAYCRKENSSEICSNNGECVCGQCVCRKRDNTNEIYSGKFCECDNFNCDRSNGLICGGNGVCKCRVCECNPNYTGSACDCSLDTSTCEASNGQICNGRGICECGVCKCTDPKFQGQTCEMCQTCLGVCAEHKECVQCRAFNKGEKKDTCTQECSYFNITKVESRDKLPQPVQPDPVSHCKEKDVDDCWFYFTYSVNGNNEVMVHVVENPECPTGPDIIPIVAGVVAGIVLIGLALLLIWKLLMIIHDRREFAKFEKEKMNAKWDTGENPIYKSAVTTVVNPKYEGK
# testSummary: VCAM-1/α4β1 integrin binding inhibitory activity evaluation test (Jurkat cell adhesion to VCAM-1/Fc)
# Format: cell-based
# experimentalContext: Jurkat cells binding to recombinant human VCAM-1/Fc
pIC50: −log10 of the molar value.
outcomeMeasure: pIC50

Example entries and their recorded answers appear below.
| testSmiles | targetOrSystem | assayResult |
| --- | --- | --- |
| Cn1c(=O)n(-c2ccc(C[C@H](NC(=O)c3c(F)cc(NS(=O)(=O)c4ccc(-n5nccn5)cc4)cc3F)C(=O)O)cc2)c(=O)c2ccncc21 | α4β1 integrin (Homo sapiens (Human), UniProt P05556+P13612) | 6.82 |
| CN(C)c1ccc2c(c1)c(=O)n(-c1ccc(C[C@H](NC(=O)c3c(F)cc(NS(=O)(=O)c4ccc(-n5cncn5)cc4)cc3F)C(=O)O)cc1)c(=O)n2C | α4β1 integrin (Homo sapiens (Human), UniProt P05556+P13612) | 6.47 |
| Cn1ccc(=O)n(-c2ccc(C[C@H](NC(=O)c3c(F)cc(NS(=O)(=O)c4ccc(-n5nccn5)cn4)cc3F)C(=O)O)cc2)c1=O | α4β1 integrin (Homo sapiens (Human), UniProt P05556+P13612) | 6.40 |
| Cc1ccc(-c2ccc(S(=O)(=O)Nc3cc(F)c(C(=O)N[C@@H](Cc4ccc(-n5c(=O)c6ccncc6n(C)c5=O)cc4)C(=O)O)c(F)c3)cc2)cn1 | α4β1 integrin (Homo sapiens (Human), UniProt P05556+P13612) | 6.74 |
| Cc1cc(-c2ccc(S(=O)(=O)Nc3cc(F)c(C(=O)N[C@@H](Cc4ccc(-n5c(=O)c6c(ncn6C)n(C)c5=O)cc4)C(=O)O)c(F)c3)cc2)ccn1 | α4β1 integrin (Homo sapiens (Human), UniProt P05556+P13612) | 6.28 |

1 = Cn1cnc2c1c(=O)n(-c1ccc(C[C@H](NC(=O)c3c(F)cc(NS(=O)(=O)c4ccc(-c5ncccn5)cc4)cc3F)C(=O)O)cc1)c(=O)n2C
2 = Cn1ccc(=O)n(-c2ccc(C[C@H](NC(=O)c3c(F)cc(NS(=O)(=O)c4ccc(-n5cccc5)cc4)cc3F)C(=O)O)cc2)c1=O
Would you mind telling me which has the lower recorded pIC50 between 1 and 2 ? Pick one; state its label.
2
(2: 5.82, 1: 6.82)

###

# targetOrSystem: α4β7 integrin (Homo sapiens (Human), UniProt P13612+P26010)
# Sequence (P13612 34-1032): as the sequence (P13612 34-1032) above
# Sequence (P26010 20-798): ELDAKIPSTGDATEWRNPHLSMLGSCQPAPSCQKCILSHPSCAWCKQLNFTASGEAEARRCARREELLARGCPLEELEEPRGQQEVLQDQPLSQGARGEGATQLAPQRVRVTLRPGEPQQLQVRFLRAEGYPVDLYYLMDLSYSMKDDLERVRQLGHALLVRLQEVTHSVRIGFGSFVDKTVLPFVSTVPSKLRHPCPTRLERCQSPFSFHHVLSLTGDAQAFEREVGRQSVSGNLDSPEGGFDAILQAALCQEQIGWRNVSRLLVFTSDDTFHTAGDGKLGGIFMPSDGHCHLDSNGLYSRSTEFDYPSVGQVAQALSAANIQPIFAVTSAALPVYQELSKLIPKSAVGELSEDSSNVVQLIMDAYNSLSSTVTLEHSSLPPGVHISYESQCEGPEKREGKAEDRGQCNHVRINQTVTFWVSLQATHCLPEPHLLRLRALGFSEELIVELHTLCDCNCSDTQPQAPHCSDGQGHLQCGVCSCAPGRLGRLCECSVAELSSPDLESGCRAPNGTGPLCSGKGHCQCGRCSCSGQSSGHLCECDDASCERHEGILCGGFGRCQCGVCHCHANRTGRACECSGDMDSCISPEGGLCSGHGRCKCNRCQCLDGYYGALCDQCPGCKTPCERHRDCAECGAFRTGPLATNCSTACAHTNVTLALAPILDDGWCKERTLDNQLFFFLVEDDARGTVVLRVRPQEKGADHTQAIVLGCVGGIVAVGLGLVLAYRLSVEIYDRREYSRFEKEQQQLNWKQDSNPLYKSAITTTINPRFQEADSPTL
# testSummary: MAdCAM-1/α4β7 integrin binding inhibitory activity evaluation test in the presence of serum (1)
# Type: cell-based
# experimentalContext: RPMI-8866 cells binding to mouse MAdCAM-1/Fc, human serum at final concentration of 50%; read-out: α4β7 with serum added, IC50
pIC50: −log10 of the molar value.
outcomeMeasure: pIC50

Example entries and their recorded answers appear below.
| compound | assayResult |
| --- | --- |
| Cc1ccc(-c2ccc(S(=O)(=O)Nc3cc(F)c(C(=O)N[C@@H](Cc4ccc(-n5c(=O)c6ccncc6n(C)c5=O)cc4)C(=O)O)c(F)c3)cc2)cn1 [Example 50] | 7.72 |
| Cn1c(=O)n(-c2ccc(C[C@H](NC(=O)c3c(F)cc(NS(=O)(=O)c4ccc(-c5ccsc5)cc4)cc3F)C(=O)O)cc2)c(=O)c2ccncc21 [Example 53] | 7.62 |
| Cn1c(=O)n(-c2ccc(C[C@H](NC(=O)c3c(F)cc(NS(=O)(=O)c4ccc(C5=CCNCC5)cc4)cc3F)C(=O)O)cc2)c(=O)c2ccncc21 [Example 69] | 8.89 |
| Cc1cc(-c2ccc(S(=O)(=O)Nc3cc(F)c(C(=O)N[C@@H](Cc4ccc(-n5c(=O)c6c(ncn6C)n(C)c5=O)cc4)C(=O)O)c(F)c3)cc2)ccn1 [Example 74] | 7.96 |
| Cn1ccc(=O)n(-c2ccc(C[C@H](NC(=O)c3c(F)cc(NS(=O)(=O)c4ccc(-c5cncnc5)cn4)cc3F)C(=O)O)cc2)c1=O [Example 63] | 7.96 |
| Cn1c(=O)n(-c2ccc(C[C@H](NC(=O)c3c(F)cc(NS(=O)(=O)c4ccc(-c5ccoc5)cc4)cc3F)C(=O)O)cc2)c(=O)c2ccncc21 [Example 66] | 7.62 |
| Cn1c(=O)n(-c2ccc(C[C@H](NC(=O)c3c(F)cc(NS(=O)(=O)c4ccc(-n5cccn5)cc4)cc3F)C(=O)O)cc2)c(=O)c2ccncc21 [Example 62] | 7.89 |
| Cn1c(=O)n(-c2ccc(C[C@H](NC(=O)c3ccc(NS(=O)(=O)c4ccncc4)cc3F)C(=O)O)cc2)c(=O)c2ccncc21 [Example 39] | 7.57 |
| Cc1cc(-c2ccc(S(=O)(=O)Nc3cc(F)c(C(=O)N[C@@H](Cc4ccc(-n5c(=O)c6ccncc6n(C)c5=O)cc4)C(=O)O)c(F)c3)cc2)ccn1 [Example 49] | 7.60 |
| COc1cc2c(=O)n(-c3ccc(C[C@H](NC(=O)c4c(F)cc(NS(=O)(=O)c5ccc(-c6ncccn6)cc5)cc4F)C(=O)O)cc3)c(=O)n(C)c2cn1 [Example 46] | 7.82 |

a = Cn1ccc(=O)n(-c2ccc(C[C@H](NC(=O)c3c(F)cc(NS(=O)(=O)c4ccc(-n5nccn5)cn4)cc3F)C(=O)O)cc2)c1=O [Example 72]
b = Cn1c(=O)n(-c2ccc(C[C@H](NC(=O)c3c(F)cc(NS(=O)(=O)c4ccc(-n5cncn5)nc4)cc3F)C(=O)O)cc2)c(=O)c2ccncc21 [Example 55]
Consider a and b . Which of these has its pIC50 at a higher number? Pick one; state its label.
b

1 = COc1ccc2c(c1)c(=O)n(-c1ccc(C[C@H](NC(=O)c3c(F)cc(NS(=O)(=O)c4ccc(C(=O)NC5CC5)cc4)cc3F)C(=O)O)cc1)c(=O)n2C [Example 78]
2 = Cn1ccc(=O)n(-c2ccc(C[C@H](NC(=O)c3c(F)cc(NS(=O)(=O)c4ccc(-n5ccnn5)cc4)cc3F)C(=O)O)cc2)c1=O [Example 58]
Consider 1 and 2 . Which of these has its pIC50 at a higher number? Pick one; state its label.
2

P = Cn1ccc(=O)n(-c2ccc(C[C@H](NC(=O)c3c(F)cc(NS(=O)(=O)c4ccc(-n5ccnn5)cn4)cc3F)C(=O)O)cc2)c1=O [Example 73]
Q = Cn1c(=O)n(-c2ccc(C[C@H](NC(=O)c3c(F)cc(NS(=O)(=O)c4ccc(-c5cncnc5)cn4)cc3F)C(=O)O)cc2)c(=O)c2ccncc21 [Example 54]
R = Cc1cc(-c2ccc(S(=O)(=O)Nc3cc(F)c(C(=O)N[C@@H](Cc4ccc(-n5c(=O)c6ccncc6n(C)c5=O)cc4)C(=O)O)c(F)c3)cc2)cc(C)n1 [Example 70]
Put the compounds in ascending order of pIC50. Form entry: labels listed in requested order.
R, P, Q

a = Cn1ccc(=O)n(-c2ccc(C[C@H](NC(=O)c3c(F)cc(NS(=O)(=O)c4ccc(-c5cncnc5)cc4)cc3F)C(=O)O)cc2)c1=O [Example 60]
b = Cc1cnccc1-c1ccc(S(=O)(=O)Nc2cc(F)c(C(=O)N[C@@H](Cc3ccc(-n4c(=O)c5ccncc5n(C)c4=O)cc3)C(=O)O)c(F)c2)cc1 [Example 65]
c = Cn1ccc(=O)n(-c2ccc(C[C@H](NC(=O)c3c(F)cc(NS(=O)(=O)c4ccc(-n5cccc5)cc4)cc3F)C(=O)O)cc2)c1=O [Example 64]
Put the compounds in ascending order of pIC50. Form entry: labels listed in requested order.
c, b, a
(c: 7.66, b: 8.01, a: 8.26)

I = Cn1c(=O)n(-c2ccc(C[C@H](NC(=O)c3c(F)cc(NS(=O)(=O)c4ccc(-c5ccncc5)nc4)cc3F)C(=O)O)cc2)c(=O)c2ccncc21 [Example 42]
II = Cn1ccc(=O)n(-c2ccc(C[C@H](NC(=O)c3c(F)cc(NS(=O)(=O)c4ccc(C(=O)NC5CC5)cc4)cc3F)C(=O)O)cc2)c1=O [Example 45]
Consider I and II . Which of these has its pIC50 at a higher number? Pick one; state its label.
I
(I: 8.06, II: 7.68)

###

# targetOrSystem: α4β7 integrin (Homo sapiens (Human), UniProt P13612+P26010)
# testSummary: MAdCAM-1/α4β7 integrin binding inhibitory activity evaluation test in the presence of serum (2)
# Format: cell-based
# experimentalContext: RPMI-8866 cells binding to mouse MAdCAM-1/Fc, same manner as Test (3), read-out: α4β7 Rank of activity with serum added
pIC50: −log10 of the molar value.
Recorded pIC50 by entry

Example entries and their recorded answers appear below.
| testSmiles | targetOrSystem | outcomeMeasure | assayResult |
| --- | --- | --- | --- |
| Cc1cn(-c2ccc(S(=O)(=O)Nc3cc(F)c(C(=O)N[C@@H](Cc4ccc(-n5c(=O)c6ccncc6n(C)c5=O)cn4)C(=O)O)cc3F)cc2)nn1 | α4β7 integrin (Homo sapiens (Human), UniProt P13612+P26010) | pIC50 | 7.30 to 8.00 |
| Cc1cc(C(=O)NC(C)(C)C)ccc1S(=O)(=O)Nc1cc(F)c(C(=O)N[C@@H](Cc2ccc(-n3c(=O)ccn(C)c3=O)cc2)C(=O)O)c(F)c1 | α4β7 integrin (Homo sapiens (Human), UniProt P13612+P26010) | pIC50 | ≥ 8.00 |
| Cn1c(=O)n(-c2ccc(C[C@H](NC(=O)c3c(F)cc(NS(=O)(=O)c4ccc(-c5ccco5)cc4)cc3F)C(=O)O)nc2)c(=O)c2ccncc21 | α4β7 integrin (Homo sapiens (Human), UniProt P13612+P26010) | pIC50 | 7.30 to 8.00 |
| Cc1ccc(-c2ccc(S(=O)(=O)Nc3cc(F)c(C(=O)N[C@@H](Cc4ccc(-n5c(=O)c6ccncc6n(C)c5=O)cc4)C(=O)O)c(F)c3)nc2)cn1 | α4β7 integrin (Homo sapiens (Human), UniProt P13612+P26010) | pIC50 | 7.30 to 8.00 |
| Cn1c(=O)n(-c2ccc(C[C@H](NC(=O)c3cc(F)c(NS(=O)(=O)c4ccc(-c5ncccn5)cn4)cc3F)C(=O)O)nc2)c(=O)c2ncccc21 | α4β7 integrin (Homo sapiens (Human), UniProt P13612+P26010) | pIC50 | 6.70 to 7.30 |
| Cn1ccc(=O)n(-c2ccc(C[C@H](NC(=O)c3c(F)cc(NS(=O)(=O)c4ccncc4)cc3F)C(=O)O)cc2)c1=O | α4β7 integrin (Homo sapiens (Human), UniProt P13612+P26010) | pIC50 | 7.30 to 8.00 |
| CCc1ncc(-c2ccc(S(=O)(=O)Nc3cc(F)c(C(=O)N[C@@H](Cc4ccc(-n5c(=O)c6ccncc6n(C)c5=O)cc4)C(=O)O)cc3F)cc2)cn1 | α4β7 integrin (Homo sapiens (Human), UniProt P13612+P26010) | pIC50 | 7.30 to 8.00 |
| Cn1c(=O)n(-c2ccc(C[C@H](NC(=O)c3cc(F)c(NS(=O)(=O)c4ccc(-n5cnnn5)cc4)cc3F)C(=O)O)nc2)c(=O)c2ccncc21 | α4β7 integrin (Homo sapiens (Human), UniProt P13612+P26010) | pIC50 | 7.30 to 8.00 |

Tell me pIC50 reported for Cn1c(=O)n(-c2ccc(C[C@H](NC(=O)c3ccc(NS(=O)(=O)c4ccc(-c5cncnc5)cn4)cc3F)C(=O)O)cc2)c(=O)c2ccncc21
7.30 to 8.00

Tell me pIC50 reported for Cn1cnc2c1c(=O)n(-c1ccc(C[C@H](NC(=O)c3c(F)cc(NS(=O)(=O)c4ccc(-c5ncccn5)cn4)cc3F)C(=O)O)cc1)c(=O)n2C
≥ 8.00
